Reference for the values: the EternaBench riboswitch data

- Tested on: MS2 coat protein
- Experiment Summary: apparent Kd, MS2 coat protein; higher = weaker binding; RNA-MaP array; FMN 200 µM where present
- Condition Context: ligand present: flavin mononucleotide; designed as: OFF switch for flavin mononucleotide
Outcome Measure: apparent Kd (nM)
Express it in nM; write the number only.

Worked set:
* GUCAGCUCGUGAGGAUAUACAUGUGCUGGAGACAGCAUUAAAUUUUUCACAUGAGGAUCACCCAUGUAGAAGGCACGAGCUGAU | 49.4
* GGAAAAUGAGGAUAUACAUGUUUGAUACCUCUACGCCCGCAACAUGAGGAUCACCCAUGUAGAAGGCAUGAAAA | 44.2
* GGAAAUCAUGUAGGAUAUGCAUGGCGAAGCUACGCAGAAGGACAUGAGGAUCACCCAUGUUAUAGCUACCCAGUUCGGUGGCAA | 180

API: the following record is the query input.
Bench note: what apparent Kd did "CGGCAUGUCUGAGGAUAUCUGCACGUUUAGUGCAGAGAAGGCAGAACAUGAGGAUCACCCAUGUAGAUCAUUAACCGAUUAAUU" show?
337

###

- System: MS2 coat protein
- Experiment Summary: apparent Kd, MS2 coat protein; higher = weaker binding; RNA-MaP array; FMN 200 µM where present
- Condition Context: designed as: OFF switch for flavin mononucleotide; no ligand
Outcome Measure: apparent Kd
Field note: include the unit after the figure.

Worked set:
• AUAAAACAUGAGGAUCACCCAUGUAAGGAUAUGCGAAAAUAAAAUAAAAUAAAAUAAAGCAGAAGGUACAAAAA = 0.051 µM
• UGAUAGGACAGAGGAUAUGCCGAUAGGAUCUAUUAUCGAAGAAUCCUCACAUGAGGAUCACCCAUGUAGAAGGCUGUCCUAUCU = 0.00932 µM
• GGUUGUCAUAGUCAUCCUUUCCGUACAUGAGGAUCACCCAUGUAGGAUAUGCUACUCACAGUGUAGCAGAAGGGCGUGUGUCUU = 0.0166 µM

Bench note: what apparent Kd did "CCACCCUGAGGAUAUCCACCCUCAUACAUGAGGAUCACCCAUGUUCAUCCCUGAGUACCCGGAGAAGGCAGAUUUC" show?
0.0877 µM

Also "GUGCGGUCAGGAUAUGCAUGGCGGGACUUGCGUCGUGGCGUGGAGAAGGGACAUGAGGAUCACCCAUGUGGAGU" , if possible.
0.0766 µM

Also "UUAGGAUCAGGAUAUGAUGUUUUAAACAUGAGGAUCACCCAUGUAGAUCCUGAAUCAACAUCAGAAGGGAUAAUUU" , if possible.
0.0566 µM

Also "GGCUGGUGAGCAGGAUAUGGUCGUGCCUUUGUUCGUGGUCCCACAUGAGGAUCACCCAUGUUCGACCAGAAGGGCUGACUUGAG" , if possible.
0.031 µM

Also "UCCUUGGUACAGAAGGACCGAGCUCAGUAGCAGGUAGGAUAUGUACAUGAGGAUCACCCAUGUCAGCGGUAAUUACCAGUUUUC" , if possible.
0.0575 µM

###

- System: MS2 coat protein
- Experiment Summary: apparent Kd, MS2 coat protein; higher = weaker binding; RNA-MaP array; FMN 200 µM where present
- Condition Context: ligand present: flavin mononucleotide; designed as: OFF switch for flavin mononucleotide
Would you please tag the item Fulfilled when its apparent Kd is 40 nM or above, and Not fulfilled when it is below?

Worked set:
• CGAAACUACGAGAAGGACAUGUGGUCCUUCAGUUACAUGAGGAUCACCCAUGUAGGAUAUCGUAGUUUCAGGAUCGUGAGAUCA = Not fulfilled
• UUUUGACAUGAGGAUCACCCAUGUCAGGAUAUAGUAGGACAAAUAAAUAAAAGUUCUACUAGAAGGGAUAUGGA = Not fulfilled
• GAGGCGCUAGCAGGAUAUGUACAUGAGGAUCACCCAUGUAAAUCUUUUUCUGGUGAAGCGCAAGUAUAGAAGGGCUAACGCUGG = Not fulfilled
• GCAGCUUGGCAGAAGGCCUAGGUGGCGGACCUAGGAGGAUAUGCUACAUGAGGAUCACCCAUGUGGGUGGGAGAAUCCUAGGAG = Fulfilled

Please tell me: is the sequence "CGCUCAAUUACUUUGAAUAGAAUCAGAAGGCGUUACAUGAGGAUCACCCAUGUUAUGAUGUGUAACGAGGAUAUGAAUUGAGCG" at or over 40 nM in terms of apparent Kd?
Fulfilled

Also "GUCGUGUGAGGAUAUGGAUAGUAGCAGUGGCGGUCGGCGACCUAGAAGGCACAUGAGGAUCACCCAUGUAAGAG" , if possible.
Not fulfilled

###

- Test system: MS2 coat protein
- Experiment Summary: apparent Kd, MS2 coat protein; higher = weaker binding; RNA-MaP array; FMN 200 µM where present
- Condition Context: designed as: OFF switch for flavin mononucleotide; no ligand
Parameter apparent Kd: see the listing below.
Express it in nM; write the number only.

Worked set:
• UGUGCGUUGAUCUUAGAUCGGAGUACAUGAGGAUCACCCAUGUAGGAUAUUCAAAGACGCAGAUAGAAGAAGGACAUAGGUUUC = 7.85
• CUGAGCUCAGGAUAUACAUGAGGAUCACCCAUGUGUUCCUGCGACGUUAGUUGCACAUGUAGAAGGGAGUUCGG = 272
• GGGUAACAUGAGGAUCACCCAUGUGAGGAUAUCCUAGGGAUGGAAGCCCGGCCAACCAGGAGAAGGUACUAAAG = 83.2
• AGAGAAUAGGUAGGAUAUCUUAAUAGAAAGAAUAGAGAAGGACCACAUGAGGAUCACCCAUGUGAAGUCUUGAGACUACAUGGU = 18.1
• UUGUUAUAUGUAGGAUAUGCAUAUUGUUAUUAUGCAGAAGGACAUGAGGAUCACCCAUGUAUAUUAUUAUUAUAUAUUAUAUAU = 32

Bench note: what apparent Kd did "AUUGUAUGGGAAGGAUAUAGAAUAUUAUUUUAACAUGAGGAUCACCCAUGUAACCUUAUGUGUAGCUAGAAGGUCCGUUUAUUA" show?
131

Also "UAUUAGUUAGGAUAUACAUGAGGAUCACCCAUGUCACGGGUCCACUUGUCCUAUGCGUGUAGAAGGAGCGACCC" , if possible.
19.5

Also "AUAGCAACAUGAGGAUCACCCAUGUAGGAUAUCGCUAUUGUAAUCAUGAAACAUGAUUACAAUAGCGAGAAGGACAUAUGCUAU" , if possible.
6.51

Also "GUCAGCUCGUGAGGAUAUACAUGUGCUGGAAACAGCAUUAAAUUUUUCACAUGAGGAUCACCCAUGUAGAAGGCACGAGCUGAU" , if possible.
17.3

Also "CUAUUAUUGAUCCAUUUUUUCAACAUGAGGAUCACCCAUGUGCAGGAUAUCGUGAUUAUUAUCAACGAGAAGGGCAAAUUCACG" , if possible.
45.7

###

- Test system: MS2 coat protein
- Experiment Summary: apparent Kd, MS2 coat protein; higher = weaker binding; RNA-MaP array; FMN 200 µM where present
- Condition Context: ligand present: flavin mononucleotide; designed as: OFF switch for flavin mononucleotide
Outcome Measure: apparent Kd (nM)
Express it in nM; write the number only.

* GCGUCACAAUUAGAACCAAUACGAACAUGAGGAUCACCCAUGUAGGAUAUGCUAGAAGUUGAGUUGCAGAAGGACAUUUAUCGC | 9.8
* UUGCUCAAUUGGGCAGGAACCUCACAUGAGGAUCACCCAUGUCAGGAUAUCCUAGUUUGGACGUAGGAGAAGGGACAGAGUAUC | 152
* CUAUUAUUGAUCCAUUUUUUCAACAUGAGGAUCACCCAUGUGCAGGAUAUCGUGAUUAUUAUCAACGAGAAGGGCAAAUUCACG | 149
* UGUUGGAGCAGAGGAUAUACAUGAGGAUCACCCAUGUAAUAAAGUGAAGCCUGGAAACAGGCAAUGUAGAAGGCUGCUCCGACA | 73.6
* ACAUGAGGAUCACCCAUGUGAUGAUCUUCCAUGUCAUAUUUCAGAAGGCUCGCAUGUUUGAUGAGAGAGGAUAUGGAAUAUGCG | 368

What apparent Kd appears in the records for this sequence with MS2 coat protein? "CGAUAGGACAGAGGAUAUACACAUGAGGAUCACCCAUGUGAUUUCGGCGCGAAAGCGCCAAACAUGUAGAAGGCUGUCCUAUCG"
4.89

Also "AUAUACGUUGAGGAUAUGCGAAUAAGUAUAGUUGCAGAAGGCGACACAUGAGGAUCACCCAUGUUCAUGGACAC" , if possible.
44.6

###

Parameter apparent Kd: see the listing below.
- Tested on: MS2 coat protein
- Experiment Summary: apparent Kd, MS2 coat protein; higher = weaker binding; RNA-MaP array; FMN 200 µM where present
- Condition Context: designed as: OFF switch for flavin mononucleotide; no ligand
Express it in nM; write the number only.

* UCAUCGUGAGGAUAUUAUCGUAAGUGCAGGGUCUGACUUAGUAAGAAGGCACAUGAGGAUCACCCAUGUCCCUC | 20.2
* GGAUAGGACAGAGGAUAUACGUGCUAGAGAUACUAGCAAAAUUUCCUAACAUGAGGAUCACCCAUGUAGAAGGCUGUCCUAUCG | 6.61
* UCUGGGUCUGUGAGGAUAUUGGGUCUGAAAGGGCUCGAGAAGGCACAUGAGGAUCACCCAUGUAAGGGCUCGGG | 27.6
* AAUAUGUUGCAGAAGGCUAUAUUUUUUUAGUACCUCAUGACAUGAGGAUCACCCAUGUUUUUGUUGGAGGAUAUGCAAUAUAUU | 8.07
* CCUCAGUAAGGAUAUCAGCUUAUAGAGUUGGUAAUGAGAGCUGAGAAGGUACAUGAGGAUCACCCAUGUUAGUU | 21.8
* AUAUACGUUGAGGAUAUGCGAAUAAGUAUAGUUGCAGAAGGCGACACAUGAGGAUCACCCAUGUUCAUGGACAC | 28.2
* GGAUCGAGUGUGAGGAUAUACCUAUGGAUACAUAGGUAGAAGGCACAUGAGGAUCACCCAUGUGUUCCCGGUCC | 43.4
* CACGAUCAUGUAGGAUAUAUACUGGAAUACAGUAUAGAAGGACAUGAGGAUCACCCAUGUUAUGUGCCUCCAAGUAAGAUCGUG | 17.7

Bench note: what apparent Kd did "UAUAAGAACGAAGGAUAUGGUUACAUGAGGAUCACCCAUGUAUUAAUAUUGAUCUAUUUUUAUAACCAGAAGGUCGAGAGUAAA" show?
27.4

Also "CCCUCACAUGAGGAUCACCCAUGUCAGGAUAUUCGAACGGUGUGUUUUUGGCCAGUUGGAAGAAGGGACAUAAA" , if possible.
29.7

Also "AAGAUGCGGAUAGGAUAUGGAAAGAAGGAAAGACCAGAAGGAUUGGUCAUAUAACAUGAGGAUCACCCAUGUAUAUGUUGUGAA" , if possible.
17.8

Also "UGUCGGAGCAGAGGAUAUUACAUGAGGAUCACCCAUGUAUGAACCAAUAGCUGGAAACAGCAGUGUAAGAAGGCUGCUCCGACA" , if possible.
12.5

Also "ACGCGAUGGGAGAAGGUACUUUAAUUAGGUUACACAUGAGGAUCACCCAUGUAAGGAUAUCCCAUCGUUAAAUAUUAUACAGCA" , if possible.
6.16

Also "CGGCGGAAAGGAUAUGCAGAAAUAUCAAAAUGUGGGCCACGACAUGAGGAUCACCCAUGUAGAAGGUUCAGCCG" , if possible.
15.5

Also "UAUAAGCUAGGAUAUACUAACGAAACUAAUGCAUAUAUAUAACAUGAGGAUCACCCAUGUAGAAGGAGCAGAAU" , if possible.
25.5
